reported property: glass transition temperature (°C)

# compound, unit info, reported value
rows = [
    ("*Nc1ccc(C(C)(C)c2ccc(NC(=O)c3cccc(C(*)=O)c3)cc2)cc1 (repeat unit)", "°C", 279.00),
    ("*Nc1cnc(*)s1 (repeat unit)", "°C", 139.00),
    ("*CC(*)(C#N)C(=O)OC(C)C (repeat unit)", "°C", 66.00),
    ("*c1ccc2c(c1)C(=O)N(c1cc(Br)c(Oc3c(Br)cc(N4C(=O)c5ccc(C(*)(C(F)(F)F)C(F)(F)F)cc5C4=O)cc3Br)c(Br)c1)C2=O (repeat unit)", "°C", 303.00),
    ("*c1ccc(-c2ccc(-c3ccc(-c4ccc(-c5ccc6c(c5)C(=O)N(c5ccc(Oc7ccc(N8C(=O)c9ccc(*)cc9C8=O)cc7)cc5)C6=O)cc4)cc3)cc2)cc1 (repeat unit)", "°C", 244.00),
    ("*CCCC1(C)CCN(C(=O)CCC(=O)N2CCC(*)(C)CC2)CC1 (repeat unit)", "°C", 99.00),
    ("*O[Si](*)(C)CCCCCCCCOc1ccc(C(=O)Oc2ccc(C#N)cc2C)cc1 (repeat unit)", "°C", 5.50),
    ("*Oc1ccc(C(C)(CCC)c2ccc(OC(*)=O)cc2)cc1 (repeat unit) [Poly[2,2-pentane bis(4-phenyl)carbonate]]", "°C", 137),
    ("*c1ccc2c(c1)C(=O)N(c1ccc(Oc3ccc(C(=O)c4cccc(C(=O)c5ccc(Oc6ccc(N7C(=O)c8ccc(C(*)(C(F)(F)F)C(F)(F)F)cc8C7=O)cc6)cc5)n4)cc3)cc1)C2=O (repeat unit)", "°C", 226.90),
    ("*C(=O)Oc1ccc(C2(c3ccc(OC(=O)c4ccc5c(c4)C(=O)N(c4ccc(-c6ccc(N7C(=O)c8ccc(*)cc8C7=O)cc6C)c(C)c4)C5=O)cc3)CCC(C(C)(C)C)CC2)cc1 (repeat unit)", "°C", 217.00),
    ("*CC(*)n1c2ccccc2c2c3ccccc3ccc21 (repeat unit)", "°C", 291.50),
    ("*Oc1c(-c2ccccc2)cc(*)cc1-c1ccc(C(C)(C)C)cc1 (repeat unit)", "°C", 240.00),
    ("*CC(O)CN(C)S(=O)(=O)c1ccc(-c2ccc(S(=O)(=O)N(C)CC(O)COc3ccc(O*)cc3)cc2)cc1 (repeat unit)", "°C", 84.00),
    ("*c1ccc(Sc2cc3c(cc2Sc2ccc(N4C(=O)C5C6C=CC(C7C(=O)N(*)C(=O)C67)C5C4=O)cc2)C(=O)N(CCN(C)C)C3=O)cc1 (repeat unit)", "°C", 310.00),
]

====

Let's look at some compounds and their measured glass transition temperature.
reported property: glass transition temperature (°C)

# compound, reported property, unit info, reported value
measured = [
    ("*CC(*)C(=O)OCCCSCC (repeat unit)", "glass transition temperature", "°C", -76.00),
    ("*C(=O)OCCOC(=O)c1ccc(N2C(=O)c3ccc(*)cc3C2=O)cc1 (repeat unit)", "glass transition temperature", "°C", 280.00),
    ("*C(=O)NCCCCCCNC(=O)c1ncn(C)c1* (repeat unit)", "glass transition temperature", "°C", 86.00),
    ("*/N=N/c1ccc(NC(=O)CCC(=O)Nc2ccc(*)cc2)cc1 (repeat unit)", "glass transition temperature", "°C", 220.00),
    ("*C(=O)OCCCCCCCCCOC(=O)c1ccc(N2C(=O)c3ccc(*)cc3C2=O)cc1 (repeat unit)", "glass transition temperature", "°C", 62.00),
    ("*Oc1ccc(S(=O)(=O)c2cccc3c(S(=O)(=O)c4ccc(Oc5c(C)cc(-c6cc(C)c(*)c(C)c6)cc5C)cc4)cccc23)cc1 (repeat unit)", "glass transition temperature", "°C", 262.00),
    ("*CCCCCC(=O)Nc1ccc(NC(=O)CCCCCN2C(=O)c3ccc(C(=O)c4ccc5c(c4)C(=O)N(*)C5=O)cc3C2=O)cc1 (repeat unit)", "glass transition temperature", "°C", 200.00),
    ("*c1cc(Br)c(-c2c(Br)cc(N3C(=O)c4ccc(-c5ccc6c(c5)C(=O)N(*)C6=O)cc4C3=O)cc2C(=O)OCCCCCCCCCCCCCCCC)c(C(=O)OCCCCCCCCCCCCCCCC)c1 (repeat unit)", "glass transition temperature", "°C", 92.00),
    ("*Oc1ccc(C(=O)c2cccc(NC(=O)c3ccc(C(=O)Nc4cccc(C(=O)c5ccc(*)cc5)c4)cc3)c2)cc1 (repeat unit)", "glass transition temperature", "°C", 189.00),
    ("*c1ccc(-c2cc(-c3ccc(-c4ccccc4)cc3)cc(-c3ccc(N4C(=O)c5ccc(NC(=O)Nc6cccc7c(NC(=O)Nc8ccc9c(c8)C(=O)N(*)C9=O)cccc67)cc5C4=O)cc3)n2)cc1 (repeat unit)", "glass transition temperature", "°C", 254.00),
    ("*Oc1ccc(CC(NC(=O)CCc2ccc(OC(=O)CCCCCCCCC(*)=O)cc2)C(=O)OCCCCCCCC)cc1 (repeat unit)", "glass transition temperature", "°C", 15.50),
    ("*Oc1ccc(OC(=O)c2cc(OCCCCCCCCCCOCC3CCCN3c3ccc([N+](=O)[O-])cc3)c(C(*)=O)cc2OCCCCCCCCCCOCC2CCCN2c2ccc([N+](=O)[O-])cc2)cc1 (repeat unit)", "glass transition temperature", "°C", 30.00),
    ("*Oc1cccc2c(OC(=O)c3ccc(Oc4ccc(C(*)=O)cc4)cc3)cccc12 (repeat unit)", "glass transition temperature", "°C", 171.00),
    ("*c1ccc(-c2ccc(-c3cnc4cc(Oc5ccc6nc(*)cnc6c5)ccc4n3)cc2)cc1 (repeat unit)", "glass transition temperature", "°C", 390.00),
    ("*CC(*)n1ccc2ccccc21 (repeat unit)", "glass transition temperature", "°C", 19.00),
    ("*CC(*)(F)C(=O)OC(C(F)(F)F)C(F)(F)F (repeat unit)", "glass transition temperature", "°C", 102.00),
    ("*/C=C/c1cccc(OC(=O)CCCCCCCCC(=O)Oc2cccc(-c3nnc(*)s3)c2)c1 (repeat unit)", "glass transition temperature", "°C", 41.00),
    ("*CC(*)(CC(=O)OCCC1CCCCC1)C(=O)OCCC1CCCCC1 (repeat unit)", "glass transition temperature", "°C", 48.00),
    ("*CCN(CCOC(=O)c1ccc(C(=O)O*)c(OCCC)c1)c1ccc(-c2nc3ccc([N+](=O)[O-])cc3o2)cc1 (repeat unit)", "glass transition temperature", "°C", 119.00),
    ("*CC(*)C(=O)OCC(C)(C)C (repeat unit)", "glass transition temperature", "°C", 22.00),
    ("*CCCCCCCCCCCC(=O)Oc1ccc(C2(c3ccc(OC(=O)c4ccc5c(c4)C(=O)N(*)C5=O)cc3)CCCCC2)cc1 (repeat unit)", "glass transition temperature", "°C", 96.00),
    ("*C/C=C/c1cc(C(C)(C)c2ccc(O)c(/C=C/CC3CC(=O)N(c4ccc(Cc5ccc(N6C(=O)CC(*)C6=O)cc5)cc4)C3=O)c2)ccc1O (repeat unit)", "glass transition temperature", "°C", 206.00),
    ("*c1ccc(NC2CC(=O)N(c3ccc(-c4sc(-c5ccc(N6C(=O)CC(Nc7ccc(-c8nc(-c9ccc(-c%10nc(-c%11ccc([N+](=O)[O-])cc%11)c(-c%11ccc([N+](=O)[O-])cc%11)[nH]%10)cc9)[nH]c8*)cc7)C6=O)cc5)c(-c5ccccc5)c4-c4ccccc4)cc3)C2=O)cc1 (repeat unit)", "glass transition temperature", "°C", 152.00),
    ("*c1ccc2c(c1)C(=O)N(c1ccc(Cc3ccc(N4C(=O)c5ccc(C(F)(F)C(F)(F)C(*)(F)F)cc5C4=O)cc3)cc1)C2=O (repeat unit)", "glass transition temperature", "°C", 290.00),
    ("*c1cccc(OCCCCCCOc2cccc(N3C(=O)c4ccc(-c5ccc6c(c5)C(=O)N(*)C6=O)cc4C3=O)c2)c1 (repeat unit)", "glass transition temperature", "°C", 153.00),
    ("*C(=O)Nc1ccc(Oc2ccc(-c3ccc(Oc4ccc(NC(=O)c5ccc6c(c5)C(=O)N(c5ccc(Oc7ccccc7-c7ccccc7Oc7ccc(N8C(=O)c9ccc(*)cc9C8=O)cc7)cc5)C6=O)cc4)cc3)cc2)cc1 (repeat unit)", "glass transition temperature", "°C", 254.00),
    ("*OC(COC(=O)c1ccc(-c2cc(CCCCCCCC)c(-c3ccc(C(*)=O)c(F)c3F)cc2CCCCCCCC)c(F)c1F)COc1ccc(/N=N/c2ccc(C#N)cc2)cc1 (repeat unit)", "glass transition temperature", "°C", 61.00),
]

====

Let's look at some molecules and their measured glass transition temperature.

# molecule, glass transition temperature / °C
records = [
    ("*CN1C(=O)c2ccc(C(c3ccc4c(c3)C(=O)N(Cc3nnc(-c5ccc(-c6nnc(*)o6)cc5)o3)C4=O)(C(F)(F)F)C(F)(F)F)cc2C1=O (repeat unit)", 214.00),
    ("*c1ccc(Oc2ccc(C(c3ccc(Oc4ccc(-c5cccc(*)n5)cc4C(F)(F)F)cc3)(C(F)(F)F)C(F)(F)F)cc2)c(C(F)(F)F)c1 (repeat unit)", 153.00),
    ("*CCCCCCNC(=O)Cc1ccc(CC(=O)N*)cc1 (repeat unit)", 95.00),
    ("*CC(OC(=O)C(CC(C)C)NC(=O)OCc1ccccc1)C(COC(=O)O*)OC(=O)C(CC(C)C)NC(=O)OCc1ccccc1 (repeat unit)", 50.90),
    ("*c1ccc(-n2ccc(-c3ccc(-c4ccn(*)n4)cc3)n2)cc1 (repeat unit)", 75.00),
    ("*c1ccc(-c2ccc([Si](*)(C)C)s2)s1 (repeat unit)", 45.00),
    ("*O[Si](C)(C)O[Si](C)(C)O[Si](C)(C)O[Si](C)(C)O[Si](C)(C)Oc1c(*)c2ccccc2c2ccccc12 (repeat unit)", -38.00),
    ("*CC(O)COc1ccc(C(C)(C)c2ccc(OCC(O)COc3cccc(NC(=O)CCCCC(=O)Nc4cccc(O*)c4)c3)cc2)cc1 (repeat unit)", 103.00),
    ("*O[Si](*)(C)C=C (repeat unit)", -129.00),
    ("*c1ccc2c(c1)C(=O)N(c1ccc(OCCCCOc3ccc(N4C(=O)c5ccc(C(*)(C(F)(F)F)C(F)(F)F)cc5C4=O)cc3)cc1)C2=O (repeat unit)", 169.00),
    ("*Oc1c(F)c(F)c(Sc2c(F)c(F)c(Oc3ccc(C(c4ccc(*)cc4)(C(F)(F)F)C(F)(F)F)cc3)c(F)c2F)c(F)c1F (repeat unit)", 141.50),
    ("*Oc1ccc(NC(=O)c2ccc(Oc3ccc(C(=O)Nc4ccc(*)cc4)cc3)cc2)cc1 (repeat unit)", 274.00),
    ("*CC(*)OC(=O)c1ccncc1 (repeat unit)", 98.50),
    ("*=NP(=NP(=NC(=*)Oc1ccc(C(C)(C)c2ccccc2)cc1)(Oc1ccc(C(C)(C)c2ccccc2)cc1)Oc1ccc(C(C)(C)c2ccccc2)cc1)(Oc1ccc(C(C)(C)c2ccccc2)cc1)Oc1ccc(C(C)(C)c2ccccc2)cc1 (repeat unit)", 55.00),
]
